Assay: Partition coefficients of akuamma alkaloids in CCS solvent systems
Format: physicochemical
Conditions: 1:1:1:1 Hex/EtOAc/MeOH/H2O, 10 mM TEA
valueType: Kbase
# respond with the number and nothing more

Guide cases for Kbase, answers given:
smilesStructure | valueType | obsValue
C/C=C1/CN2CC[C@]34C(=C(C(=O)OC)[C@H]1C[C@H]23)Nc1ccccc14 | Kbase | 1.63
C/C=C1/CN2[C@@H]3C[C@@]45c6ccccc6N[C@]4(O3)[C@@H]2C[C@@H]1[C@@]5(COC(C)=O)C(=O)OC | Kbase | 0.82

Name the recorded Kbase for C/C=C1/CN2CC[C@@]34c5ccccc5N(C)[C@]35OC[C@@]4(C(=O)OC)[C@H]1C[C@H]25 .
2.71

Name the recorded Kbase for C/C=C1/CN2CC[C@]34C(=Nc5ccccc53)[C@@H]2C[C@@H]1[C@@]4(COC(C)=O)C(=O)OC .
0.23

---

Biological target: μOR (Homo sapiens, UniProt P35372)
Sequence (P35372 whole entry): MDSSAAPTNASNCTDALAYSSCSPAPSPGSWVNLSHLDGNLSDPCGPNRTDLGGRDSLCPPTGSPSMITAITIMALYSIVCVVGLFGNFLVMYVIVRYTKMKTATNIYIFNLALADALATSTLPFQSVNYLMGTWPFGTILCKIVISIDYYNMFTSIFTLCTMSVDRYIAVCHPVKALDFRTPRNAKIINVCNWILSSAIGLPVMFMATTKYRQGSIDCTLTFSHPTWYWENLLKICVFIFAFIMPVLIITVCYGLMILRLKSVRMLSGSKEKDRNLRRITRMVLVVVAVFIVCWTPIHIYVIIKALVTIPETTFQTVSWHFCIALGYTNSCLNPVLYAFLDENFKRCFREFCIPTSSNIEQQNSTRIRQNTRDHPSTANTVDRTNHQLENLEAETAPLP
Test: PDSP primary radioligand displacement screen, μOR
Format: binding
Details: 10 μM
valueType: displacement of [3H]-DAMGO

molecule | obsValue
C/C=C1/CN2CC[C@@]34c5cc(O)ccc5N(C)[C@]35OC[C@@]4(C(=O)OC)[C@H]1C[C@H]25 [Compound 1, akuammine] | displaced
C/C=C1/CN2CC[C@@]34c5ccccc5N(C)[C@]35OC[C@@]4(C(=O)OC)[C@H]1C[C@H]25 [Compound 3, pseudo-akuammigine] | displaced
C/C=C1/CN2CC[C@]34C(=C(C(=O)OC)[C@H]1C[C@H]23)Nc1ccccc14 [Compound 4, akuammicine] | displaced

---

Assay: Partition coefficients of akuamma alkaloids in CCS solvent systems
Assay type: physicochemical
Conditions: 2:2:3 MTBE/CH3CN/H2O, 10 mM TEA
Examples of molecules with documented Kbase follow.
# respond with the number and nothing more

Name the recorded Kbase for C/C=C1/CN2CC[C@]34C(=Nc5ccccc53)[C@@H]2C[C@@H]1[C@@]4(COC(C)=O)C(=O)OC .
5.61

Name the recorded Kbase for C/C=C1/CN2CC[C@@]34c5ccccc5N(C)[C@]35OC[C@@]4(C(=O)OC)[C@H]1C[C@H]25 .
87.0

Name the recorded Kbase for C/C=C1/CN2[C@@H]3C[C@@]45c6ccccc6N[C@]4(O3)[C@@H]2C[C@@H]1[C@@]5(COC(C)=O)C(=O)OC .
11.4

Name the recorded Kbase for C/C=C1/CN2CC[C@]34C(=C(C(=O)OC)[C@H]1C[C@H]23)Nc1ccccc14 .
27.7

---

Examples of compounds with documented Kacid follow.
Experiment: Partition coefficients of akuamma alkaloids in CCS solvent systems
Type: physicochemical
Settings: 3:7:3:7 Hex/EtOAc/MeOH/H2O, 10 mM HCl

Guide cases for Kacid, answers given:
smilesStructure | valueType | obsValue
C/C=C1/CN2[C@@H]3C[C@@]45c6ccccc6N[C@]4(O3)[C@@H]2C[C@@H]1[C@@]5(COC(C)=O)C(=O)OC | Kacid | 0.01
C/C=C1/CN2CC[C@]34C(=C(C(=O)OC)[C@H]1C[C@H]23)Nc1ccccc14 | Kacid | <<0.01
C/C=C1/CN2CC[C@@]34c5ccccc5N(C)[C@]35OC[C@@]4(C(=O)OC)[C@H]1C[C@H]25 | Kacid | <<0.01

Let us move to another entry and its Kacid.
Name the recorded Kacid for C/C=C1/CN2CC[C@]34C(=Nc5ccccc53)[C@@H]2C[C@@H]1[C@@]4(COC(C)=O)C(=O)OC .
<<0.01

---

Test: Partition coefficients of akuamma alkaloids in CCS solvent systems
Format: physicochemical
Conditions: 3:1.5:4 MTBE/CH3CN/H2O, 10 mM TEA
Examples of compounds with documented Kbase follow.

Guide cases for Kbase, answers given:
smilesStructure | obsValue
C/C=C1/CN2CC[C@]34C(=C(C(=O)OC)[C@H]1C[C@H]23)Nc1ccccc14 | 64.1
C/C=C1/CN2CC[C@]34C(=Nc5ccccc53)[C@@H]2C[C@@H]1[C@@]4(COC(C)=O)C(=O)OC | 6.82
C/C=C1/CN2[C@@H]3C[C@@]45c6ccccc6N[C@]4(O3)[C@@H]2C[C@@H]1[C@@]5(COC(C)=O)C(=O)OC | 17.4

Let us move to another entry and its Kbase.
Name the recorded Kbase for C/C=C1/CN2CC[C@@]34c5ccccc5N(C)[C@]35OC[C@@]4(C(=O)OC)[C@H]1C[C@H]25 .
30.9

---

Examples of compounds with documented Kbase follow.
Assay: Partition coefficients of akuamma alkaloids in CCS solvent systems
Type: physicochemical
Conditions: 3:7:3:7 Hex/EtOAc/MeOH/H2O, 10 mM TEA

compound | Kbase
C/C=C1/CN2CC[C@]34C(=C(C(=O)OC)[C@H]1C[C@H]23)Nc1ccccc14 [Compound 4, akuammicine] | 28.9
C/C=C1/CN2CC[C@@]34c5ccccc5N(C)[C@]35OC[C@@]4(C(=O)OC)[C@H]1C[C@H]25 [Compound 3, pseudo-akuammigine] | 32.3
C/C=C1/CN2[C@@H]3C[C@@]45c6ccccc6N[C@]4(O3)[C@@H]2C[C@@H]1[C@@]5(COC(C)=O)C(=O)OC [Compound 6, picraline] | 7.29

Name the recorded Kbase for C/C=C1/CN2CC[C@]34C(=Nc5ccccc53)[C@@H]2C[C@@H]1[C@@]4(COC(C)=O)C(=O)OC [Compound 5, akuammiline] .
2.53

---

Examples of compounds with documented Kacid follow.
Test: Partition coefficients of akuamma alkaloids in CCS solvent systems
Assay type: physicochemical
Conditions: 1:1 EtOAc/H2O, 10 mM HCl

smilesStructure | obsValue
C/C=C1/CN2CC[C@@]34c5ccccc5N(C)[C@]35OC[C@@]4(C(=O)OC)[C@H]1C[C@H]25 | 0.10
C/C=C1/CN2CC[C@]34C(=C(C(=O)OC)[C@H]1C[C@H]23)Nc1ccccc14 | 0.02
C/C=C1/CN2[C@@H]3C[C@@]45c6ccccc6N[C@]4(O3)[C@@H]2C[C@@H]1[C@@]5(COC(C)=O)C(=O)OC | 0.03

Name the recorded Kacid for C/C=C1/CN2CC[C@]34C(=Nc5ccccc53)[C@@H]2C[C@@H]1[C@@]4(COC(C)=O)C(=O)OC .
0.03
